# System: Plasmodium berghei
# EXPERIMENT_NOTES: Screen against P. berghei liver stage (PbLuc), transformed with Luciferase, at 10uM
# Type: functional, HepG2
# TEST_SETTINGS: tested at 10 uM
Out of some 69,000 compounds screened, about 8,600 (12%) showed an effect of 50% or more. This excerpt belongs to a sample that is enriched for strong results.
MEASURED_ATTRIBUTE: INHIBITION (%)
Express the result in % but write the number alone.

Reported Plasmodium berghei INHIBITION for item "CCNC(=O)[C@@H]1C[C@@H](N)CN1Cc1ccc(Sc2ccc(C)cc2)o1" was 77.7

With Plasmodium berghei as the test system, "CCNC(=O)[C@@H]1C[C@H](N)CN1Cc1ccc(-c2ccccc2C#N)o1" showed INHIBITION of 47.1

Entry "Cc1ccc(NCc2nc3n(n2)CCCCC3)c(C)c1" : INHIBITION on Plasmodium berghei = 2.69

Lab entry: Plasmodium berghei assay, molecule "Cc1ccc(N[C@@H]2CN(Cc3cc(C)on3)C[C@@H]3CCCO[C@@H]32)nn1" , INHIBITION = -24.1

Form: item "CCNC(=O)[C@@H]1C[C@@H](N)CN1C(=O)Cc1cc(C)ccc1C" ; test system Plasmodium berghei; INHIBITION: 11.2

---

# System: Plasmodium berghei
# EXPERIMENT_NOTES: Screen against P. berghei liver stage (PbLuc), transformed with Luciferase, at 10uM
# Format: functional, HepG2
# TEST_SETTINGS: tested at 10 uM
Screen size: about 69,000 compounds; about 8,600 (12%) showed an effect of 50% or more. The list comes from a sample in which strong results are over-represented; it also holds close analogues and randomly drawn compounds.
Task for the reader: assign each of the following compounds its reported INHIBITION.
Enter your answer as a number in %; do not include the unit.

Plasmodium berghei data for "CC1=N[C@@]2(CC[C@@H]3CN(CC(=O)N(C)C)C[C@@H]32)C(=O)N1CC(C)C" ; its INHIBITION: -6.32

INHIBITION for Plasmodium berghei with input "CNC(=O)CN1CCc2c(CNc3nccs3)n[nH]c2C1" equals -4.88

INHIBITION of "CNC(=O)c1sccc1N(C)S(=O)(=O)c1ccc(Cl)cc1" , assay on Plasmodium berghei, is 84.7

Hey, Plasmodium berghei data for "COCCNC(=O)c1sccc1N(C)S(=O)(=O)c1ccc(Cl)cc1" : INHIBITION came out at 51.6

INHIBITION of "CCNC(=O)c1sccc1N(C)S(=O)(=O)c1ccc(Cl)cc1" , assay on Plasmodium berghei, is 26.7

Item "CCC(CC)C(=O)NCc1c(C)nn(C)c1N1CCCN(C)CC1" was tested on Plasmodium berghei; the reported INHIBITION is 24.6

Record O=C(CN1CCN(CC(O)C2CC2)CC1)NCc1ccccc1 (stereo unspecified) has Plasmodium berghei INHIBITION equal to -24.6

Summary line: "CCCNC(=O)c1sccc1N(C)S(=O)(=O)c1ccc(Cl)cc1" , Plasmodium berghei, reported INHIBITION = 23.7

Case "Cn1nc(CNC(=O)c2cccc(C(F)(F)F)c2)c2c1CCOC2" , Plasmodium berghei, INHIBITION recorded as 15.9

Item: "Cc1nn(C)cc1CN1C[C@H]2CC[C@@H](C1)N(Cc1c(C)noc1C)C2=O" | System: Plasmodium berghei | INHIBITION: -4.4

Value sought: INHIBITION, system Plasmodium berghei, item CC(C)c1noc(CCC(=O)NC(C)c2ccccn2)n1 (stereo unspecified) . Result: -40.96

---

# Test system: Plasmodium berghei
# EXPERIMENT_NOTES: Screen against P. berghei liver stage (PbLuc), transformed with Luciferase, at 10uM
# Format: functional, HepG2
# TEST_SETTINGS: tested at 10 uM
About 8,600 (12%) of roughly 69,000 compounds showed an effect of 50% or more. This is one part of a sample in which strong results are shown more often than they occur.
MEASURED_ATTRIBUTE: INHIBITION (%)
Numbers only here, please. The scale is %.

Lab note: "O=C(NCCc1cccs1)[C@H]1CO[C@H]2CCNC[C@H]2C1" gave INHIBITION of 39.8

Recorded INHIBITION (molecule CN(Cc1cnc(N)nc1)CC1CCCN(CCc2ccc(Cl)cc2)C1 (stereo not drawn) ): -7.94

Per the records, this molecule ( "Cn1cccc1C(=O)N1C[C@@H]2C[C@@H](c3nc(C4CC4)cs3)O[C@@H]2C1" ) has INHIBITION equal to -5.08

Short answer for CN(Cc1nnc(C2CC2)n1C)C1CCN(CCc2ccncc2)C1 (stereo not drawn) : INHIBITION was -11.2

Record summary for CC(CNC(=O)CCn1cncn1)N1CCc2ccccc21 (stereo not drawn) : reported INHIBITION = -7.7

The molecule Cc1nc(CN(C)CC2CCCN(CCc3ccc(Cl)cc3)C2)n(C)n1 (stereo not drawn) showed INHIBITION equal to 39.3

Lab note: COc1ccccc1CC1CCCN(CCC#N)C1 (stereo not drawn) gave INHIBITION of 9.32

Measured INHIBITION, CC(NC(=O)CCn1cncn1)c1nnc2n1CCCCC2 (stereo not drawn) : 39.2

Kindly note the recorded INHIBITION for "CN(C)CCN(C)C[C@@H]1CN(C(=O)NC2CCCC2)C[C@@H]1CO" , which is 27.4

Looking up "COCCN(C)C[C@@H]1CN(C(=O)c2ccc(C)cc2)C[C@@H]1CO" , I see its INHIBITION listed as -18.9

Documented INHIBITION of CC(C)C(CNC(=O)CCn1cncn1)N1CCc2ccccc2C1 (stereo not drawn) : 60.5

Lab note: "COCCN(C)C[C@@H]1CN(C(=O)c2cccc(C(F)(F)F)c2)C[C@@H]1CO" gave INHIBITION of 23.5

For reference, reported INHIBITION for CN1CCN(CC2CN(CC3CC3)Cc3nccn3C2)CC1 (stereo not drawn) stands at 19.4

The value of INHIBITION measured for the molecule COc1ccccc1CCN1CCCC(CN(C)Cc2c[nH]c(C)n2)C1 (stereo not drawn) turned out to be 85.7

Memo: CN(Cc1ccncc1)CC1CCCN(CCc2ccc(Cl)cc2)C1 (stereo not drawn) , reported INHIBITION: 65.9

Per the records, this molecule ( CC(C)n1nc(O)c2c1NC(=O)CSC2c1cnn(C)c1 (stereo not drawn) ) has INHIBITION equal to 9.36

Summary for this molecule, Cc1n[nH]c2c1C(c1cnn(C)c1)SCC(=O)N2 (stereo not drawn) : INHIBITION is -2.37

Recorded result, CC(CNC(=O)CCCn1cncn1)N1CCc2ccccc2C1 (stereo not drawn) , INHIBITION: 69.7

Briefly, INHIBITION measured for CS(=O)(=O)NC1CCCN(C(=O)Nc2cccnc2N2CCCC2)C1 (stereo not drawn) : 21.1

According to the records, this molecule CCC(CNC(=O)CCn1cncn1)N1CCc2ccccc2C1 (stereo not drawn) displays INHIBITION of -19.5

The molecule identified as "CN(C(=O)NCc1nccn1Cc1ccccc1)C1CC1" registered its INHIBITION at 46.4

Short answer for "O=C(O)[C@@H]1CN(C(=O)CCC(F)(F)F)C[C@H]1c1ccncc1" : INHIBITION was 11.6

The value of INHIBITION measured for the molecule Cc1nc(CN(C)CC2CCCN(CCc3ccc(Cl)cc3)C2)no1 (stereo not drawn) turned out to be 40.8

---

# Test system: Plasmodium berghei
# EXPERIMENT_NOTES: Screen against P. berghei liver stage (PbLuc), transformed with Luciferase, at 10uM
# Type: functional, HepG2
# TEST_SETTINGS: tested at 10 uM
The whole screen tested about 69,000 compounds, of which about 8,600 (12%) showed an effect of 50% or more. The sample as a whole holds a higher share of strong results than the screen did.
Lab note: compare INHIBITION with 30%, writing Fulfilled if less and Not fulfilled if equal or more.

Request: Hello, I'm reviewing records and need to know if INHIBITION of "CC(C)n1ccc2c(NC(=O)c3n[nH]c4c3CCC4)cccc21" is below 30%. Could you check?
Result: Not fulfilled

Request: Determine if COc1ccc(C(=O)N2CCCC2c2cnn(C)c2)cn1 (configuration not stated) shows INHIBITION strictly lower than 30%.
Result: Fulfilled

Request: Strictly below 30%: is that where INHIBITION of "CC(=O)Nc1cccc2c1ccn2CC(=O)NC(C)C" sits?
Result: Fulfilled

Request: I wonder whether "CC(=O)Nc1cccc2c1ccn2CC(=O)Nc1n[nH]c(CC(C)C)n1" has INHIBITION below 30%. Can you tell?
Result: Not fulfilled

Request: Quick check: INHIBITION of Cc1csc(CCNC(=O)NC(C)Cn2cccn2)n1 (configuration not stated) under 30%?
Result: Fulfilled

Request: Threshold test, INHIBITION < 30%: "Cc1ccc(N(C)C2CCN(C(=O)c3n[nH]c4c3CCC4)CC2)nn1"
Result: Fulfilled

Request: Field: below-cutoff. Rule: recorded INHIBITION strictly less than 30%. Subject: "CN(C)CCCn1cnc2cc(NC(=O)c3n[nH]c4c3CCC4)ccc21"
Result: Fulfilled

Request: Report whether reported INHIBITION is lower than 30% (strictly) for "Cc1cccn2c(=O)cc(OC(=O)c3ccccc3Cl)nc12"
Result: Fulfilled

Request: Quick check: INHIBITION of "NCCCn1nc(C(F)(F)F)c2c1CCC2" under 30%?
Result: Fulfilled

Request: hey, is INHIBITION for "COCCn1ccc2c(NC(=O)c3n[nH]c4c3CCC4)cccc21" lower than 30% or not?
Result: Fulfilled

Request: Dear colleague, could you confirm whether INHIBITION of "COc1ncccc1CNC(=O)N(Cc1ccc(F)cc1F)C1CC1" falls below 30%? Thanks.
Result: Not fulfilled

The reported numbers originate from ChEMBL document CHEMBL4513216.
